- procedure_details: Spectroscopic data (absorption, emission, fluorescence quantum yield) in CH3CN
- Format: physicochemical
- experimental_conditions: complexes: Zn(ClO4)2 10 equiv.
Below, each of the compounds is paired with its reported ∈/10^3 (A band) value.

Example results:
compound	obs_value
COCCCNc1cc2c3c(c(NCCOc4ccc(/C=C/c5ccc(-c6ccc(COCCOCCOC)cn6)nc5)cc4)cc4c3c1C(=O)N(CCCOC)C4=O)C(=O)N(CCCOC)C2=O [Compound (4)]	22 10^3 M^-1 cm^-1
COCCCN1C(=O)c2cc(NCCOc3ccc(/C=C/c4ccc(-c5ccc(COCCOCCOC)cn5)nc4)cc3)c3c4c(cc(NCCCCC[P+](c5ccccc5)(c5ccccc5)c5ccccc5)c(c24)C1=O)C(=O)N(CCCOC)C3=O.[I-] [Compound (5)]	23 10^3 M^-1 cm^-1
COCCCN1C(=O)c2cc(NCCOc3ccc(/C=C/c4ccc(-c5ccc(COCCOCCOC)cn5)nc4)cc3)c3c4c(cc(NCCCCC[P+](c5ccccc5)(c5ccccc5)c5ccccc5)c(c24)C1=O)C(=O)N(CCCOC)C3=O.I.[Zn+2] [[Zn(5)]^2+]	21 10^3 M^-1 cm^-1

Attention now turns to another entry.
Data request: Could you tell me which ∈/10^3 (A band) is on file for COCCCNc1cc2c3c(c(NCCOc4ccc(/C=C/c5ccc(-c6ccc(COCCOCCOC)cn6)nc5)cc4)cc4c3c1C(=O)N(CCCOC)C4=O)C(=O)N(CCCOC)C2=O.[Zn+2] [[Zn(4)]^2+] ?
Data returned: 21 10^3 M^-1 cm^-1

====

- procedure_details: Spectroscopic data (absorption, emission, fluorescence quantum yield) in CH3CN
- Assay type: physicochemical
- experimental_conditions: λex = 565 nm
Marks after values point to notes of the source that are not given here.
Parameter: φf. Scope: all listed entries.

compound	φf
COCCCNc1cc2c3c(c(NCCOc4ccc(/C=C/c5ccc(-c6ccc(COCCOCCOC)cn6)nc5)cc4)cc4c3c1C(=O)N(CCCOC)C4=O)C(=O)N(CCCOC)C2=O [Compound (4)]	0.41^c

Data request: Look up φf: COCCCN1C(=O)c2cc(NCCOc3ccc(/C=C/c4ccc(-c5ccc(COCCOCCOC)cn5)nc4)cc3)c3c4c(cc(NCCCCC[P+](c5ccccc5)(c5ccccc5)c5ccccc5)c(c24)C1=O)C(=O)N(CCCOC)C3=O.[I-] [Compound (5)]
Data returned: 0.28^c

Data request: Record: COCCCNc1cc2c3c(c(NCCCOC)cc4c3c1C(=O)N(CCCOC)C4=O)C(=O)N(CCCOC)C2=O [Compound (2)]
Data returned: 0.51^c

Data request: Cool, now COCCCNc1cc2c3c(c(NCCCCC[P+](c4ccccc4)(c4ccccc4)c4ccccc4)cc4c3c1C(=O)N(CCCOC)C4=O)C(=O)N(CCCOC)C2=O [Compound (3)]
Data returned: 0.48^c

====

- procedure_details: Spectroscopic data (absorption, emission, fluorescence quantum yield) in CH3CN
- Assay type: physicochemical
- experimental_conditions: complexes: Zn(ClO4)2 10 equiv.
measured_property: ∈/10^3 (D band)

compound	∈/10^3 (D band)
COCCCNc1cc2c3c(c(NCCOc4ccc(/C=C/c5ccc(-c6ccc(COCCOCCOC)cn6)nc5)cc4)cc4c3c1C(=O)N(CCCOC)C4=O)C(=O)N(CCCOC)C2=O.[Zn+2] [[Zn(4)]^2+]	55 10^3 M^-1 cm^-1
COCCCN1C(=O)c2cc(NCCOc3ccc(/C=C/c4ccc(-c5ccc(COCCOCCOC)cn5)nc4)cc3)c3c4c(cc(NCCCCC[P+](c5ccccc5)(c5ccccc5)c5ccccc5)c(c24)C1=O)C(=O)N(CCCOC)C3=O.I.[Zn+2] [[Zn(5)]^2+]	67 10^3 M^-1 cm^-1
COCCCN1C(=O)c2cc(NCCOc3ccc(/C=C/c4ccc(-c5ccc(COCCOCCOC)cn5)nc4)cc3)c3c4c(cc(NCCCCC[P+](c5ccccc5)(c5ccccc5)c5ccccc5)c(c24)C1=O)C(=O)N(CCCOC)C3=O.[I-]	81 10^3 M^-1 cm^-1

Shift focus to the following entry.
Data request: Consider the compound shown here: COCCCNc1cc2c3c(c(NCCOc4ccc(/C=C/c5ccc(-c6ccc(COCCOCCOC)cn6)nc5)cc4)cc4c3c1C(=O)N(CCCOC)C4=O)C(=O)N(CCCOC)C2=O What is its recorded ∈/10^3 (D band)?
Data returned: 76 10^3 M^-1 cm^-1

Where do the numbers come from? From patent US20130071936A1.
